For each of the compounds below, state its EC50.
experimental_system: SFRP-1 (Homo sapiens, UniProt Q8N474)
Sequence (Q8N474 32-314): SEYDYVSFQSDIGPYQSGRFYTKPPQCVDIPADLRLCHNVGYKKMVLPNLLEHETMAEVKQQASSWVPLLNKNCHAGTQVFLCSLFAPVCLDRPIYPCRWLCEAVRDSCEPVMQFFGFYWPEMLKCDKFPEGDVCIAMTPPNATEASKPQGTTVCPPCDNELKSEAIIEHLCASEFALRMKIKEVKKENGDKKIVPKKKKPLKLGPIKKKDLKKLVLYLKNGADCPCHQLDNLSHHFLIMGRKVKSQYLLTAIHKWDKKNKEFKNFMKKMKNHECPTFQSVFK
assay_protocol: Cell-based assay for in vitro measurement of SFRP-1/SARP2 antagonist activity (U2OS cells co-transfected with 16x TCF-tk-Luciferase reporter, Wnt and hSFRP-1);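 also: U2OS cells co-transfected with a TCF-tk luciferase reporter, a Wnt vector, hSFRP-1 or empty vector and CMV-βgal, luciferase luminescence read in cell lysates alongside βgal activity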
Write the numeric value and append its unit.

Challenge: Tell me the measured EC50 of O=C(c1ccc(OC(F)(F)F)cc1)N1CCC(NS(=O)(=O)c2cc(S(=O)(=O)c3ccccc3)ccc2C(F)(F)F)CC1 [Example 709] , please.
Response given: 2350 nM

Challenge: // returns reported EC50 for input CN(C)c1ccc(S(=O)(=O)c2ccc(C(F)(F)F)c(S(=O)(=O)NC3CCNCC3)c2)cc1 [Example 843]
Response given: 2010 nM

Challenge: # query: EC50 of entry O=S(=O)(NCC1(O)CCCCC1)c1cc(S(=O)(=O)c2ccccc2)ccc1C(F)(F)F [Example 868]
Response given: 2130 nM

Challenge: Need EC50 of O=S(=O)(NCCc1cccnc1)c1cc(S(=O)(=O)c2ccc(O)cc2)ccc1C(F)(F)F [Example 814] , thanks.
Response given: 307 nM

Challenge: Please give the measured EC50 for this compound: O=C(O)c1ccc(S(=O)(=O)N2CCC[C@H]2C(=O)N2CCC(NS(=O)(=O)c3cc(S(=O)(=O)c4ccccc4)ccc3C(F)(F)F)CC2)cc1 [Example 1080]
Response given: 386 nM

Challenge: I am curious: what EC50 value has been reported for CN(CCNS(=O)(=O)c1cc(S(=O)(=O)c2ccccc2)ccc1C(F)(F)F)C(=O)NC(C)(C)C [Example 829] ?
Response given: 1320 nM

Challenge: # lookup: EC50 of CN(CCNS(=O)(=O)c1cc(S(=O)(=O)c2ccccc2)ccc1C(F)(F)F)C(=O)c1ccc(CP(=O)(O)O)cc1 [Example 1036]
Response given: 7640 nM

Challenge: Report EC50 for C[S+]([O-])CCC(=O)N1CCC(NS(=O)(=O)c2cc(S(=O)(=O)c3ccccc3)ccc2C(F)(F)F)CC1 (centres unmarked) [Example 1054] please.
Response given: 717 nM

Challenge: Please report the recorded EC50 for O=S(=O)(NCc1ccc(Cl)nc1)c1cc(S(=O)(=O)c2ccccc2)ccc1C(F)(F)F [Example 1030] .
Response given: 1110 nM

Challenge: Fill in: EC50 of CC(C)c1ccc(S(=O)(=O)c2ccccc2)cc1S(=O)(=O)NC1CCNCC1 [Example 924] is ___
Response given: 1920 nM

Challenge: Tell me the measured EC50 of O=C(c1cc(Cl)nc(Cl)c1)N1CCC(NS(=O)(=O)c2cc(S(=O)(=O)c3ccccc3)ccc2C(F)(F)F)CC1 [Example 857] , please.
Response given: 1190 nM

Challenge: May I ask what EC50 has been recorded for COC(=O)C1CCCC(NS(=O)(=O)c2cc(S(=O)(=O)c3ccccc3)ccc2C(C)C)C1 (centres unmarked) [Example 932] ?
Response given: 1860 nM

Challenge: Please give the measured EC50 for this compound: O=S(=O)(NCCC1CCCN1)c1cc(S(=O)(=O)c2ccccc2)ccc1C(F)(F)F (centres unmarked) [Example 913]
Response given: 7010 nM

Challenge: May I ask what EC50 has been recorded for COC(=O)c1ccc2c(c1)CC(NS(=O)(=O)c1cc(S(=O)(=O)c3ccccc3)ccc1C(F)(F)F)C2 (centres unmarked) [Example 1037] ?
Response given: 3810 nM

Challenge: Give its EC50 value. Item: CN(CCNS(=O)(=O)c1cc(S(=O)(=O)c2ccccc2)ccc1C(F)(F)F)C(=O)NCC(=O)O [Example 888]
Response given: 1770 nM

Challenge: Name the recorded EC50 for O=S(=O)(NCCn1ccnc1)c1cc(S(=O)(=O)c2ccccc2F)ccc1C(F)(F)F [Example 845] .
Response given: 807 nM

Challenge: Recorded EC50 for O=S(=O)(NCC(O)c1cccnc1)c1cc(S(=O)(=O)c2ccccc2)ccc1C(F)(F)F (centres unmarked) [Example 741] , please?
Response given: 1000 nM

Challenge: Please report the recorded EC50 for N#CCN1CCC(NS(=O)(=O)c2cc(S(=O)(=O)c3ccccc3)ccc2C(F)(F)F)CC1 [Example 750] .
Response given: 937 nM

Challenge: Tell me the measured EC50 of CCCc1ccc(S(=O)(=O)c2ccc(F)cc2)cc1S(=O)(=O)NCCc1ccncc1 [Example 875] , please.
Response given: 6650 nM

Challenge: Can you share its EC50? I mean this compound: O=C(c1ccc(C(F)(F)F)c(F)c1)N1CCC(NS(=O)(=O)c2cc(S(=O)(=O)c3ccccc3)ccc2C(F)(F)F)CC1 [Example 711]
Response given: 9400 nM

Challenge: // query EC50 value for entry O=C(O)CN1CCCC1CCNS(=O)(=O)c1cc(S(=O)(=O)c2ccccc2)ccc1C(F)(F)F (centres unmarked) [Example 918]
Response given: 2980 nM

Challenge: Quick one: EC50 of O=S(=O)(NC1CCN(Cc2nn[nH]n2)CC1)c1cc(S(=O)(=O)c2ccccc2)ccc1C(F)(F)F [Example 885] ?
Response given: 2090 nM

Challenge: Param item = O=S(=O)(NCCN1CCOCC1)c1cc(S(=O)(=O)c2ccccc2)ccc1C(F)(F)F [Example 766] ; retrieve measured EC50.
Response given: 1220 nM

Challenge: Data request, read-out EC50, for CC(=O)N1CC[C@@H](C(=O)N2CCC(NS(=O)(=O)c3cc(S(=O)(=O)c4ccccc4)ccc3C(F)(F)F)CC2)C1 [Example 1064]
Response given: 193 nM

Challenge: Query (compound): O=S(=O)(NC1CCOCC1)c1cc(S(=O)(=O)c2ccccc2)ccc1OC(F)(F)F [Example 662] ; field requested: EC50
Response given: 17600 nM

Challenge: # input compound: C[C@H](C(N)=O)N1CCC(NS(=O)(=O)c2cc(S(=O)(=O)c3ccccc3)ccc2C(F)(F)F)CC1 [Example 1038] ; wanted: its EC50
Response given: 331 nM

Challenge: GET /values?readout=EC50&item= COc1ccc(S(=O)(=O)c2ccc(C(F)(F)F)c(S(=O)(=O)NC3CCNCC3)c2)cc1 [Example 999]
Response given: 789 nM

Challenge: What value of EC50 has been reported for the following compound? CNc1ccccc1S(=O)(=O)c1ccc(C(F)(F)F)c(S(=O)(=O)NC2CCNCC2)c1 [Example 861]
Response given: 1780 nM

Challenge: // lookup EC50 for O=C(c1cc(Cl)cnc1Cl)N1CCC(NS(=O)(=O)c2cc(S(=O)(=O)c3ccccc3)ccc2C(F)(F)F)CC1 [Example 977]
Response given: 1100 nM
